# credit: patent US20230220053A1

- Tested Target: S1-Fc (SARS-CoV-2 S1 protein, Fc fusion) (SARS-CoV-2, UniProt P0DTC2 16-685)
- Method Notes: SPR (Biacore T200), S1 captured on anti-human Fc chip, scFv injected
pKd: −log10 of the molar value.
Decision: pKd compared against 8; not below it gives yes, below it gives no.

Would you please look over these solved cases?
2020EP54-B02 scFv (scFv) scFv: QVQLVQSGAEVKKPGASVKVSCKASGYTFIGYYMHWMRQAPGQGLEWMGRINPNSGGTNYAEKFQGRVTMTRDTSISTAYMELSRLTFNDTAVYYCARWDSSSWKFDSWGQGTLVTVSSGGGGSGGGGSGGGGSEIVLTQSPSSLSASVGDRVTITCQASQDISNYLNWYQQKPGKAPKLLIYDASNLETGVPSRFSGSGSGTDFTFTISSLQPEDIATYYCQQYDNLPITFGQGTRLEIK ... no
2020EP66-D03 scFv (scFv) scFv: QVQLQQWGAGLLKPSETLSLTCAVYGGSFSGYYWSWIRQPPGKGLEWIGEINHSGSTNYNPSLKSRVTISVDTSKNQFSLKLSSVTAADTAVYYCARGPPLWNYGKGFDYWGQGTLVTVSSGGGGSGKGGSGGGGSQPVLTQPPSASGTPGQRVTISCSGSSSNIGSNYVYWYQQLPRTAPKLLIYRNNQRPSGVPDRFSGSKSGTSASLAISGLRSEDEADYYCAAWDDSLSAWVFGGGTKLTVL ... no
2020EP75-E02 scFv (scFv) scFv: QMQLVQSGAEVKKPGSSVKVSCKASGGTFSSYAISWVRQAPGQGLEWMGGIIPIFGTANYAQKFQGRVTITADKSTSTAYMELSSLRSEDTAVYYCARPRDYRAQYYFDYWGQGTLVTVSSGGGGSGGGGSGGGGSDIVMTQSPSSLSASVGDRVTITCRAGQDIDTSVNWYQLKPGKAPRLLIYASSSLQTGVPSRFSGGGSGAEFTLTISSLQPEDFATYFCQQTFSTSVTFGGGTKVEIK ... yes

Problem: Check if pKd >= 8 (inclusive). Item: 2020EP54-H01 scFv (scFv, also called 2020EP054-H01) scFv: QVQLVESGGGVVQPGRSLRLSCAASGFTFSSYGMHWVRQAPGKGLEWVAVISYDGSNKYYADSVKGRFTISRDNSKNTLYLQMNSLRAEDTAVYYCAKGRGWYLDYWGQGTLVTVSSGGGGSGGGGSGGGGSNFMLTQPPSVSVSPGQTASITCSGDKLGDKYACWYQQKPGQSPVLVMYEDYKRPSGIPARFSGSNSGNTATLTISRVEGGDEGDYYCQVWDSRGPEVIFGGGTKLTVL
Result: no
